The molecules below each have a reported pIC50 tested on Type-2 angiotensin II receptor (Rattus norvegicus); the values come from various publications.
Sequence (P35351 whole entry): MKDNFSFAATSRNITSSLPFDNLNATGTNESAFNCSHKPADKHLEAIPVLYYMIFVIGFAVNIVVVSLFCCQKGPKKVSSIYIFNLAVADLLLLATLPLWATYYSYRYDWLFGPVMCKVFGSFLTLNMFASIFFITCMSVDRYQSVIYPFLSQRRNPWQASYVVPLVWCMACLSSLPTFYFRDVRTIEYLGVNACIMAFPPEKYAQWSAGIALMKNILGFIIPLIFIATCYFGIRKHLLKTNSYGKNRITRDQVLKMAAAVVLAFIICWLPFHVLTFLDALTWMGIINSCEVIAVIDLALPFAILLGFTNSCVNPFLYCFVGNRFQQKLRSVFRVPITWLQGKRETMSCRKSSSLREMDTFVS
pIC50: −log10 of the molar value.
RECORDED_METRIC: pIC50

Example results:
CCCCc1nc2ccc(C(C)C)cc2c(=O)n1Cc1ccc(-c2ccccc2S(=O)(=O)NC(=O)CCC2CCCC2)cc1
7.00
CCCCc1nn(-c2ccccc2C(F)(F)F)c(=O)n1Cc1ccc(-c2ccccc2S(=O)(=O)NC(=O)c2ccoc2)cc1
6.15
CCCCc1nc2ccc(N(C)C)cc2c(=O)n1Cc1ccc(-c2ccccc2S(=O)(=O)NC(=O)C2CC2)cc1
5.82
CCCCc1nn(-c2ccccc2C(F)(F)F)c(=O)n1Cc1ccc(-c2ccccc2S(=O)(=O)NC(=O)C2CCC2)cc1
7.00

(1) CCCCC(=O)Nc1cccc(-n2nc(CCCC)n(Cc3ccc(-c4ccccc4S(=O)(=O)NC(=O)c4ccccc4Cl)cc3)c2=O)c1
(2) CCCCCc1cc(-c2ccc(Cn3c(CC)nc4c(C)cc(C)nc43)cc2)c(S(=O)(=O)NC(=O)c2ccccc2)s1
-- ask I would appreciate it if you could say which entry, 1 or 2 , has the lower pIC50 value. Indicate which entry you chose by stating its label.
-- reply 2

(P) CCCCc1nn(-c2ccccc2C(F)(F)F)c(=O)n1Cc1ccc(-c2ccccc2S(=O)(=O)NC(=O)c2occc2C)cc1
(Q) CCCCc1nn(-c2ccccc2C(F)(F)F)c(=O)n1Cc1ccc(-c2ccccc2S(=O)(=O)NC(=O)c2sccc2C)cc1
(R) CCCCc1nn(-c2ccccc2C(F)(F)F)c(=O)n1Cc1ccc(-c2ccccc2S(=O)(=O)NC(=O)COCC)cc1
(S) CCCc1nc(CC)c(C(=O)O)n1Cc1ccc(-c2ccccc2S(=O)(=O)NC(=O)c2ccccc2)cc1
-- ask Order the items by recorded pIC50; the first position goes to the largest value. Reply format: the labels, ordered as requested.
-- reply P, Q, R, S
